The reported numbers originate from the nanobody polyreactivity screen of Harvey et al. (2022).

- Assay text: yeast display, Sf9 membrane polyspecificity reagent, FACS + sequencing; frameworks hold sequencing errors
Quantity name: polyreactivity (PSR sort gate)

seq_string=QVQLVESGGGLVQAGGSLRLSCAASGSTFKTYAMGWYRQAPGKEREFVASISGSGGSTRYADSVKGRFTISRDNAKNTVYLQMNSLKPEDTAVYYCAARLQKPTNGKGVYYWGQGTQVTVSS meas_value="high polyreactivity"
seq_string=QVQLVESGGGLVQAGGSLRLSCAASGSIFEPNAMGWYRQAPGKVRELVAAITSGGTTYADSVKGRFTISRDNAKNTVYLQMNSLKPEETAVYYCAADYSFVYYYPFDYWGQGTQVTVSS meas_value="low polyreactivity"
seq_string=QVQLVESGGGLVQAGGSLRLSCAASGSTFRVYAMGWYRQAPGKERELVAAITRIGGRTYYADSVKGRFTISRDNAKNTVYLQMNSLKPEDTAVYYCAARYPGGYSSGYNYWGQGTQVTVSS meas_value="high polyreactivity"
seq_string=QVQLVESGGGLVQAGGSLRLSCAASRRTFYYAMGWYRQAPWKERYADSVKGRFTISRDNAKNTVYLQMNSLKPVDTAVYYCAAKVPEPPSLDESDYWGQGTQVTVSS meas_value="low polyreactivity"
seq_string=QVQLVESGGGLVQAGGSLRLSCAASGSIFVYNAMGWYRQAPGKEMELVAAISTSGGRTYYADSVKGRFTISRDNAKNTVYLQMNSLKTEDTAVYYCNALGYWRRVVDGFDYWGQGTQVTVSS meas_value="high polyreactivity"

Problem: Entry QVQLVESGGGLVQAGGRLLLSCAASGFTFYTYAMGWYRQAPGKERELVADISSGGSTNYADSVKGRFTISRDNAKNTVYLQMNSLKPEDTAVYYCSADYYFLDWYDYWGQGTQVTVSS has what polyreactivity (PSR sort gate)?
Result: low polyreactivity

Problem: Bench note: what polyreactivity (PSR sort gate) did QVQLVESGGGLVQAGGSLRLSCAASGRTFDWYAMGWYRPAPGKERELVAAISRSGGSTYYADSVKGRFTISLDNAKNTVYLQMNSLKPEDTAVYYCAKRYAPDSRYYYWGQGTQVTVSS show?
Result: high polyreactivity

Problem: Recorded polyreactivity (PSR sort gate) of QVQLVSGGGLVQAGGSLRLSCAASGRIFVSYAMGWYRQAPGKERELVADISSDGSTNYADSVKGRFTISRDNAKNTVYLQMNSLKPEDTAVYYCAVEVVRVYRYDYWGQGTQVTVSS , please.
Result: low polyreactivity

Problem: Endpoint output: polyreactivity (PSR sort gate) of QVQLVESGGGLVQAGGSLRLSCAASGSTFGVNAMGWSRQAPGKERELVAVITRSGGSTYYADSVKGRFTISRDNAKNTVFLQMNSLIPEDTAVYYCAKSGVVDWGQGTQVTVSS . Value?
Result: low polyreactivity

Problem: Can you share its polyreactivity (PSR sort gate)? I mean this sequence: QVQLVESGGGLVQAGGSLRLSCAASGSTFVGNAKGWYRQAPGKERELVAAITGGGGSTYYADSVKGRFTISRDNAKNTVYLQMNSLKPEDTAVYYCARDRTDYYVCYVRYYYWGQGTQVTVSS
Result: low polyreactivity

Problem: What does the record list as polyreactivity (PSR sort gate) for QVQLVESGGGLVHAGGSLRLSCAAYGIIFQYYTMGWYRQAPGKERELVASITYDGDSTYYADSVKGRFTISLDNAKNTVYLQMNSLKPEDTALYYCAAVANGFWTYEYWGQGTQVTVSS ?
Result: low polyreactivity

###

- Assay text: yeast display, Sf9 membrane polyspecificity reagent, FACS + sequencing; frameworks hold sequencing errors
Quantity name: polyreactivity (PSR sort gate)

Example sequences with recorded polyreactivity (PSR sort gate):
seq_string=QVQLVESGGGLDQAGGSLRLSCAASGITFKSYAMGWYRQAPGKERELVAAITYRSGSTYYADSVKGRFTISRDNAKNTVYLQMNSLKPEDTAVYYCAVGGKFQIQTYYQRYNYWGQGTQVTVSS meas_value="high polyreactivity"
seq_string=QVQLVESGGGLVQAGGSLRLSCAASGITFFRYAMGWYRQAPGKERELVAAITTSGSSTFYADSVKGRFTISRDNAKNTVYLLMNSLKPEDTAVYYCAAVFRWARLYEYDYWGQGTQVTVSS meas_value="high polyreactivity"
seq_string=QVQLVESGGGLVQAGGSLRLSCAASGSIFRSNDMGWYRKAPGKERELVARITSSVGSTYYADSVKGRFTISRDNAKNTVYLQMNSLKPEVTAVYYCAKRYYHYPYGYRDYDYWGQGTQVTVSS meas_value="low polyreactivity"
seq_string=QVQLVESGGGLVQAGGSLRLSCAASGSTLYTYAMGWYRQAPGKERELVAAIRLSGGRTYYADSVKGRFTISRDNAQNTVYLQMNSLKPEDTAVYYCAVDWSYSRYDYWGQGTQVTVSS meas_value="high polyreactivity"
seq_string=QVQLVESVGGLVQEGGTLRLSCAASGSTFEVYTMGWYRQAPGKERELVAAITKNGGTTYYADSVKGRFTISRDNAKNTVYLQMNSLKPEDTAVYYCAVYYYSGYYYWDYYWGQGTQVTVSS meas_value="low polyreactivity"

Problem: I'd like to know its polyreactivity (PSR sort gate). The sequence in question is QVQLVESGGGLVQAGGSLRLSCAASGSIFPYYTMGWYRQAPGKERELVAAISGSGGSTYYADSVKGRFTISRDNAKNTVYLQMNSLKPEDTAVYYCAAYRRTWFDYWGQGTQVNVSS
Result: high polyreactivity

Problem: Requested field: polyreactivity (PSR sort gate). Item: QVQLVESGGGLVQAGGSLRLSCAASGRTFTRNAMGWYRQAPGKERELVAAITGRGGSTYYADSVKGRFTISRDNAKNTVYLQMNSLKPEDTAVYYCARFYRYSRDYWGQGTQVTVSS
Result: high polyreactivity

Problem: I have this sequence here, QVQLVESGGGLVQAGGSLRLSCAASGRIFSKYAMGWNRQAPGKERELVAAITSSTKYADSVKGRFTISRDNAKNTVYLQMNSLKPEDTAVYYCNAEFGWHTYYGADFKMDYWGQGTQVTVSS , and I need its recorded polyreactivity (PSR sort gate).
Result: high polyreactivity

Problem: Recorded polyreactivity (PSR sort gate) for QVQLVESGGGLVQAGGSLRLSCAASGRTFVFNGMGWYRPAPGKERELVAAINWDGGDTYYADSVKGRFTISRDNAKNTVYLQMNSLKPEDTAVYYCAAEGIFRYYTQATMEYWGQGTQVTVSS , please?
Result: low polyreactivity

Problem: // polyreactivity (PSR sort gate) lookup, key: QVQLVESGGRLVQAGGSLRLSCAASGRIFARYAMGWYRQAPGKERELLASINSGGNTYYADSVKGRFTISRDNAKNTVYLQMNSLKPEDTAVYYCAAVVGRRPSSRSRFEYDYWGQGTQVTVSS
Result: low polyreactivity

Problem: Give its polyreactivity (PSR sort gate) value. Item: QVQLVESGGGLVQAGGSLRLSCAASGSIFVYNAMGWYRQAPGKERELVAAITNGGSTNYADSVKGRFTISRDNAKNTVYLQMNSLNPEDTAVYYCAARRYTSAVWWRPRHYYWGQGTQVTVSS
Result: high polyreactivity

###

- Assay text: yeast display, Sf9 membrane polyspecificity reagent, FACS + sequencing; frameworks hold sequencing errors
Quantity name: polyreactivity (PSR sort gate)

seq_string=QVQLVESGGGLVQAGGRLRLSCAASGRTFIPYAMGWYRQAPGNERELVAAIRNGGSTNYADSVKGRFTISRDIAKNTVYLQMNSLKPEDTAVYYCNADLPVYVDYINGCYGYWGQGTQVTVSS meas_value="low polyreactivity"
seq_string=QVQLVESGGGLVQAGGSLRLSCAASGRTFLGYAMGWYRQAPGKERELVAAISSSGGRTYYADSVKGRFTISRDNAKNTVYLQMNSLKPEDTAVYYCNAPRIVLCGYEYWGQGTQVTVSS meas_value="high polyreactivity"
seq_string=QVQLVESGGGLVQAGGSLRLSCAASGIFWYYAMGWYRQAPGKERELVAAISSGGSTYYADSVKGRFTISRDNAKNTVSLQMNSLKPEDTAVYYCNAVYWKASHYGYGYWGQGTQVTVSS meas_value="high polyreactivity"
seq_string=QVQLVESGGGLVQAGGSLRLSCAASGRILKYNAMGWYRQAPGKERELVAAISYRGGSTYYADSVKGRFTISRDNAKNTVYLQMNSLKPEDTAVYYCNAGGGILNGPLFDYWGQGTQVTVSS meas_value="low polyreactivity"

Please look at the following sequence next.
Problem: # polyreactivity (PSR sort gate) lookup, item QVQHVESGGGLVQAGGSLRLSCAASGRIFTTYAMGWYIQAPGKERELVAAISRSGGSTYYADSVKGRFTISRDNAKNTVYLQMNSLKPEDTAVYYCAAVPTSNSFRSSFYYWGQGTQVTVSS
Result: high polyreactivity

###

- Assay text: yeast display, Sf9 membrane polyspecificity reagent, FACS + sequencing; frameworks hold sequencing errors
Quantity name: polyreactivity (PSR sort gate)

seq_string=QVQLVESGGGLVQAGGSLRLSCAASGFIFSKYAMGWYRQAPGKERELVAAITSGGSTYYADSVKGRFTISRDNAKNTVYLQMNSLKPEDTAVYYCAADSYVPNLNYDYWGQGTQVNVSS quantity_name="polyreactivity (PSR sort gate)" meas_value="low polyreactivity"
seq_string=QVQLVESGGGLVQAGGSLRLSCAASGLTLTWNAMGWYRQAPGKERELVAAITGSGGRTNYADSVKGRFTISRDNAKNTVYLQMNSLKPEDTAVYYCASFRWYHWGTRYDYWGQGTQVTVSS quantity_name="polyreactivity (PSR sort gate)" meas_value="high polyreactivity"
seq_string=QVQLVESGGGLVQAGGSIRLSCAASGRTFGYYAMGWYRQAPGKERELVAAITRTGGSTHYADSVKGRFTISRDNAKNTVYLQMNSLKPEDTAVYYCALDYRYTIPYDYWGQGTQVTVSS quantity_name="polyreactivity (PSR sort gate)" meas_value="low polyreactivity"
seq_string=QVQLVESGGGLVQAGGSLRLSCAASGRIFSPYAMGWYRQAPGKERELVAAISSSGTYYADSVKGRFTISRDNAKNTVYLQMNSLKPEDTAVYYCNARRYWGRYDYWGQGTQVTVSS quantity_name="polyreactivity (PSR sort gate)" meas_value="high polyreactivity"
seq_string=QVHLVESGGGLVQAGGSLRLSCAASGRTFANYAMGWYRQAPGKERELVAAISFSTVSTYYADSVKGRFTISRDNAKNTVYLQMNSLKPEDTAVYYCAARRLGYYRKVKELDYWGQGTQVTVSS quantity_name="polyreactivity (PSR sort gate)" meas_value="high polyreactivity"

Problem: Requested read-out: polyreactivity (PSR sort gate). Entry: QVQLVESGGGLVQAGGSLRLSCAASGSPSYFNVKGWYRQAPGKERQLVAAISWSGGSTYADSVKGRFTISRDNAKNTVYLQMNSLKREDTAFYYCNKDYGYVQLRFYCPGYYWGQGTQVTVSS
Result: low polyreactivity

Problem: Query (sequence): QVQLVESGGGLVQAGGSLRLSCAASGSNFLYYAIGWYRQAPGKERELVDGIRRGGRTNYADSVKGRFTISRDNAKNTVYLQMNSLKPEDTAVYYCAKGGYWGQGTQVTVSS ; field requested: polyreactivity (PSR sort gate)
Result: high polyreactivity

Problem: What polyreactivity (PSR sort gate) value was documented for this sequence, QVQLVESGGGLVQAGGSLRLSCAASGFIFVSNAMGWYRQAPGKERELVAAISKSGARTSYADSVKGRFTISRDNAKNTVYLQMNSLKPEDTAVYYCAASGSGVGIYYKRGNYWGQGTQVTVSS ?
Result: high polyreactivity
